- Assayed Target: human PAD4 (Homo sapiens, UniProt Q9UM07)
- Construct: human PAD4 (NM_012387), A2-P663, was PCR amplified; His-SUMO (N, cleaved yes)
- Sequence (Q9UM07 2-663): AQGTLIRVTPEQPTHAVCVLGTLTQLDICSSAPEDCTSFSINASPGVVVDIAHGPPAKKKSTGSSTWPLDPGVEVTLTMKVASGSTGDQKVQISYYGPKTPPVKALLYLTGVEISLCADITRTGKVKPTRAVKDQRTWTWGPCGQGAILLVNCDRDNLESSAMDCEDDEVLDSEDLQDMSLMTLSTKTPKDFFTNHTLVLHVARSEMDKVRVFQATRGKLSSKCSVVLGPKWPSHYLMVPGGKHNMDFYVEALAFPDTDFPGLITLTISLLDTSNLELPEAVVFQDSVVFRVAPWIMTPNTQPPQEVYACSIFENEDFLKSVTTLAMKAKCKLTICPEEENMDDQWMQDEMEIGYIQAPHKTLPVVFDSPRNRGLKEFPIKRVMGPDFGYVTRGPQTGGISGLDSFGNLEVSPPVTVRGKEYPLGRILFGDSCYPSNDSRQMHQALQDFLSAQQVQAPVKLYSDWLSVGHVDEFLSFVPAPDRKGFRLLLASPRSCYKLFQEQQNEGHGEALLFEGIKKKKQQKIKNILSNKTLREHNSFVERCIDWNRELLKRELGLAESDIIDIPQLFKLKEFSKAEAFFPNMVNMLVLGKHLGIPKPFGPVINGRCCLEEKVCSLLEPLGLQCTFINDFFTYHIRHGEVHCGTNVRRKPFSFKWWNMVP
- Experiment Description: In vitro PAD4 BAEE biochemical assay
- Reported Conditions: BAEE substrate 3 mM, 5 nM PAD4, 2 mM calcium chloride; geometric mean of multiple experiments
pIC50: −log10 of the molar value.
Property Label: pIC50

P: C[C@H]1NC(=O)CCOC[C@@H]2C[C@@H]2Cn2c(-c3nc4cc(C(=O)N[C@H]5CNCC[C@@H]5F)c(F)cc4n3C3CC3)cc3ccc1nc32
Q: COc1cc(C(=O)N2CC[C@@H](OC(F)F)[C@@H](N)C2)cc2nc(-c3cc4ccc5nc4n3CCCCCc3cc4ccccc4nc3C(=O)N(C)[C@@H]5C)n(C)c12
Enquiry: Given the listed records, identify the one among P and Q with higher pIC50. Please reply using the label of the selected record.
Return: P
